Provide the recorded Kd for the entries that follow.
Biological target: T1, AmrZ WT (Pseudomonas aeruginosa PAO1, UniProt G3XCY4 1-108)
T1 sequence: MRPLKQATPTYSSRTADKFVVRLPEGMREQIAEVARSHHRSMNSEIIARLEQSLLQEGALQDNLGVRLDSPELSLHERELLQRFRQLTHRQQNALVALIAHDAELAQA
Experiment: fluorescence anisotropy
Conditions: protein: recombinant; tags: N-terminal poly-His with 3C site, cleaved by PreScission; chain copies: 4; blunt
Number in nM, nothing else.

Recorded Kd for TTC/GC amrZ1 (dsDNA) DNA 1: GTACTTTCCGCGCGAAGGCACG DNA 2: CGTGCCTTCGCGCGGAAAGTAC , please?
2050

Recorded Kd for AATT amrZ1 (dsDNA) DNA 1: GTACTGGCAATTCGCCGGCACG DNA 2: CGTGCCGGCGAATTGCCAGTAC , please?
58.6

Recorded Kd for m17 algD (dsDNA) DNA 1: CATTGGCCATTACCAGACTCCC DNA 2: GGGAGTCTGGTAATGGCCAATG , please?
212

Recorded Kd for m5 algD (dsDNA) DNA 1: CATTTGCCATTACCAGCCTCCC DNA 2: GGGAGGCTGGTAATGGCAAATG , please?
164

Recorded Kd for m7 algD (dsDNA) DNA 1: CATTGGACATTACCAGCCTCCC DNA 2: GGGAGGCTGGTAATGTCCAATG , please?
530

Cited source for all entries: paper PMC3325190
